Just for reference, patent US20100081612A1 is where these values come from.

# TARGET_DESC: T1, rat PTHR endogenously expressed in ROS 17/2.8 cells (rat, UniProt P25961 27-591)
# T1 sequence (looked up): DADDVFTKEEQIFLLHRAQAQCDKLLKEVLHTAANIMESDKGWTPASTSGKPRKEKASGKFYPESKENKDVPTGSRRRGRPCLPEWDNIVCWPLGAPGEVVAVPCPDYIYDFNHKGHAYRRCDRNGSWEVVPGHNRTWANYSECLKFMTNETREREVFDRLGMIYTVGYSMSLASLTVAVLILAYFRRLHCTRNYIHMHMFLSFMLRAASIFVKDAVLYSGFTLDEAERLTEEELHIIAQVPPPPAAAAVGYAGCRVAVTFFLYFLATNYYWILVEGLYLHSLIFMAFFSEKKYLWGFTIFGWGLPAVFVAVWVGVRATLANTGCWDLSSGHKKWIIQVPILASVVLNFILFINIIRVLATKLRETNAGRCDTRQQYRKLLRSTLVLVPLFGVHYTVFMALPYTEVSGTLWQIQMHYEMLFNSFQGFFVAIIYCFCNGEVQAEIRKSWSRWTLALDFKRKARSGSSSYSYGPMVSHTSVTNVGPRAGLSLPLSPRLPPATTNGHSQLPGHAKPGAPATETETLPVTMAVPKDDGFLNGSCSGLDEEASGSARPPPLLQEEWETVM
# TEST_METHOD_NOTES: cell-based or functional assay
Where no end group is shown, it is not given here.
Checkbox rule: cAMP EC50, ROS 17/2.8 cells lower than 0.004 µM = Satisfied; cAMP EC50, ROS 17/2.8 cells not lower than 0.004 µM = Not satisfied.

As a guide, the following entries are already answered.
| BINDER | CLASS |
| --- | --- |
| AVSEIQLMHNLGKHLNSMRRVEWLRKKEQDV-NH2 [[Ala^1,Arg^19]hPTH(1-31)NH2 Leu^28→Glu] | Not satisfied |
| AVSEIQLMHNLGKHLNSMRRVEWERKKLQDV-NH2 [[Ala^1,Arg^19]hPTH(1-31)NH2 Leu^24→Glu] | Not satisfied |
| AVSEIQLMHNLGKHLNSMREVEWLRKKLQDV-NH2 [[Ala^1,Arg^19]hPTH(1-31)NH2 Arg^20→Glu] | Not satisfied |

Now turn to the next binder.
[in] Does AVSEIQLMHNLGKHLNSMRRVEWLRKKLQDV-NH2 (also called [Ala^1,Arg^19]PTH(1-31)NH2; [Ala^1,Arg^19]PTH(1-31)) [[Ala^1,Arg^19]hPTH(1-31)NH2] have cAMP EC50, ROS 17/2.8 cells strictly under 0.004 µM?
[out] Satisfied
